TEST TARGET: Peptide Deformylase (PDF) (Staphylococcus aureus, UniProt P68826)
Sequence (P68826 whole entry): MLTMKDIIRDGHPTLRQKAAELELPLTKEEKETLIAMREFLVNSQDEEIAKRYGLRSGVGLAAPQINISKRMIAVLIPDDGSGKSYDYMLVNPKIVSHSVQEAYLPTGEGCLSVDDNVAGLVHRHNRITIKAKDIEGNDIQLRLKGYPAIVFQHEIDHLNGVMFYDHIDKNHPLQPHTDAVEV
METRIC NAME: IC50 (µM)
Give the value in µM but do not write µM after it.

Solved entries (count: 3):
- COMPOUND: "COC(=O)CNC(=O)c1ccc2c(c1)nc(C(CCCCN)NC(=O)CCS)n2C1CC1 (stereo not shown) [Example 48]"
  MEASUREMENT UNITS: "µM"
  IC50: 2
- COMPOUND: "CCC(NC(=O)CCC(=O)NO)c1nc2cc(C(=O)NCC(=O)OC)ccc2n1Cc1ccco1 (stereo not shown) [Example 31]"
  MEASUREMENT UNITS: "µM"
  IC50: 0.151
- COMPOUND: "CCC(NC(=O)CCC(=O)O)c1nc2cc(C(=O)NCC(=O)OC)ccc2n1Cc1ccccc1 (stereo not shown) [Example 12]"
  MEASUREMENT UNITS: "µM"
  IC50: 0.068

Data request: Record CCCCn1c(C(Cc2ccccc2)NC(=O)CCC(=O)O)nc2cc(C(=O)NCC(=O)OC)ccc21 (stereo not shown) [Example 4] : what is its IC50 with Peptide Deformylase (PDF) (Staphylococcus aureus, UniProt P68826)?
Data returned: 1
